- Test system: MARK2;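 note: KINOMEscan kinase panel screen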
- assay.setup: concentration: 1 μM, replicates: in singlicate; n = 1
readout.kind: %Inh

Take a look at these entries with their results.
                           structure_string  system_name  readout_kind  measured_value
0    Oc1ccc2ncnc(Nc3ccc(OCc4ccccc4)cc3)c2c1        MARK2          %Inh              0%
1  Cc1ccc(C)c(NC(=O)NCCNc2ccnc(Nc3ccc(F)cc3)n2)c1        MARK2          %Inh              0%
2  Fc1cccc(COc2ccc(Nc3ncnc4cc[nH]c34)cc2Cl)c1        MARK2          %Inh             36%

I'm hoping you can list %Inh for every compound here, please.
1. Fc1ccc(Nc2nccc(-c3c(-c4ccc(Cl)cc4)nn4ncccc34)n2)cc1F
2. CC(C)N1CCC(n2cnc(-c3ccc(F)cc3)c2-c2ccnc(N)n2)CC1

15%
0%
